# Tested on: KRAS patient-derived spheroids with HUVEC/MSC, viability
# procedure_summary: Anticancer human tumor 323965-272-R-J2-PDC patient-derived pancreatic carcinoma cell line growth inhibition [KRAS2]
# setup_conditions: second compound 1 µM; first compound 1 µM; stronger effect = lower value
recorded_metric: viability, T/C (%)
Form entry: value (%) — number only.

>>> val("COc1cc(Nc2ncc3c(n2)-c2ccc(Cl)cc2C(c2c(F)cccc2OC)=NC3)ccc1C(=O)O + C=CC(=O)N1CCN(c2nc(=O)n(-c3c(C)ccnc3C(C)C)c3nc(-c4c(O)cccc4F)c(F)cc23)C(C)C1")
33.2
>>> val("COc1cc(Nc2ncc3c(n2)-c2ccc(Cl)cc2C(c2c(F)cccc2OC)=NC3)ccc1C(=O)O + C=CC(=O)N1CCN(c2nc(OCC3CCCN3C)nc3c2CCN(c2cccc4cccc(C)c24)C3)CC1CC#N")
30.5
>>> val("CC1COCCN1c1cc(-c2ccnn2C)c2ccnc(-c3ccn[nH]3)c2n1 (stereo not given) + CC1OCC2(CCN(c3cnc(Sc4ccnc(N)c4Cl)c(N)n3)CC2)C1N")
5.53

Query block: Entry COC(=O)c1ccc2c(C(=Nc3ccc(N(C)C(=O)CN4CCN(C)CC4)cc3)c3ccccc3)c(O)[nH]c2c1 + C=CC(=O)N1CCN(c2nc(=O)n(-c3c(C)ccnc3C(C)C)c3nc(-c4c(O)cccc4F)c(F)cc23)C(C)C1 has what viability, T/C?
Result block: 28.2

Query block: Entry CC1OCC2(CCN(c3cnc(Sc4ccnc(N)c4Cl)c(N)n3)CC2)C1N (stereo not given) + C=CC(=O)N1CCN(c2nc(OCC3CCCN3C)nc3c2CCN(c2cccc4cccc(C)c24)C3)CC1CC#N has what viability, T/C?
Result block: 13.5

----------
# Tested on: KRAS patient-derived spheroids with HUVEC/MSC, viability
# procedure_summary: Anticancer human tumor 323965-272-R-J2-PDC cell line growth inhibition [KRAS2];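 also: spheroids exposed to agents for 7 days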
# setup_conditions: curve of first compound; second compound 0.316 µM
recorded_metric: IC50 (nM)
Form entry: value (nM) — number only.

// known answers, use as guide
>>> val("COc1cc(Nc2ncc3c(n2)-c2ccc(Cl)cc2C(c2c(F)cccc2OC)=NC3)ccc1C(=O)O + COc1cc2nc(C)nc(NC(C)c3cc(N)cc(C(F)(F)F)c3)c2cc1OC1CCOC1")
73.5
>>> val("CCNC(=O)CC1N=C(c2ccc(Cl)cc2)c2cc(OC)ccc2-n2c(C)nnc21 (stereo not given) + COc1cc2nc(C)nc(NC(C)c3cc(N)cc(C(F)(F)F)c3)c2cc1OC1CCOC1")
246
>>> val("CCNC(=O)CC1N=C(c2ccc(Cl)cc2)c2cc(OC)ccc2-n2c(C)nnc21 (stereo not given) + CC1OCC2(CCN(c3cnc(Sc4ccnc(N)c4Cl)c(N)n3)CC2)C1N")
146

In the following, a different molecule is considered.
Query block: Entry Cn1nccc1Nc1nccc(-c2cc3c(s2)C(C)(C)N(CCN2CCOCC2)C3=O)n1 + C=CC(=O)N1CCN(c2nc(OCC3CCCN3C)nc3c2CCN(c2cccc4cccc(C)c24)C3)CC1CC#N has what IC50?
Result block: 58.5

----------
# System: KRAS patient-derived spheroids with HUVEC/MSC, viability
# procedure_summary: Anticancer human tumor 323965-272-R-J2-PDC cell line growth inhibition [KRAS2];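 also: spheroids exposed to agents for 7 days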;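 as to viability, T/C: 100% = DMSO vehicle control viability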
# setup_conditions: second compound 0.316 µM; first compound 0.0316 µM; stronger effect = lower value
hey, just use satisfied if measured viability, T/C is less than 60%, otherwise not satisfied

Use these answered entries as a reference point.
>>> label("CC(=O)OC12COC1CC(O)C1(C)C(=O)C(O)C3=C(C)C(OC(=O)C(O)C(NC(=O)OC(C)(C)C)c4ccccc4)CC(O)(C(OC(=O)c4ccccc4)C21)C3(C)C (stereo not given) + C=CC(=O)N1CCN(c2nc(OCC3CCCN3C)nc3c2CCN(c2cccc4cccc(C)c24)C3)CC1CC#N")
"satisfied"
>>> label("CC1(C)CCC(CN2CCN(c3ccc(C(=O)NS(=O)(=O)c4ccc(NCC5CCOCC5)c([N+](=O)[O-])c4)c(Oc4cnc5[nH]ccc5c4)c3)CC2)=C(c2ccc(Cl)cc2)C1 + CNCc1ccccc1-c1csc(C(C)Nc2nc(C)nc3cc(OC)c(OC)cc23)c1")
"not satisfied"
>>> label("CCN1CCN(Cc2ccc(Nc3ncc(F)c(-c4cc(F)c5nc(C)n(C(C)C)c5c4)n3)nc2)CC1 + COc1cc2nc(C)nc(NC(C)c3cc(N)cc(C(F)(F)F)c3)c2cc1OC1CCOC1")
"satisfied"
>>> label("CC(C)NCC(C(=O)N1CCN(c2ncnc3c2C(C)CC3O)CC1)c1ccc(Cl)cc1 (stereo not given) + COc1cc2nc(C)nc(NC(C)c3cc(N)cc(C(F)(F)F)c3)c2cc1OC1CCOC1")
"not satisfied"
>>> label("CC1OCC2(CCN(c3cnc(Sc4ccnc(N)c4Cl)c(N)n3)CC2)C1N (stereo not given) + C=CC(=O)N1CCN(c2nc(OCC3CCCN3C)nc3c2CCN(c2cccc4cccc(C)c24)C3)CC1CC#N")
"satisfied"
>>> label("COC(=O)c1ccc2c(C(=Nc3ccc(N(C)C(=O)CN4CCN(C)CC4)cc3)c3ccccc3)c(O)[nH]c2c1 + C=CC(=O)N1CCN(c2nc(OCC3CCCN3C)nc3c2CCN(c2cccc4cccc(C)c24)C3)CC1CC#N")
"not satisfied"
>>> label("CC1COCCN1c1cc(-c2ccnn2C)c2ccnc(-c3ccn[nH]3)c2n1 (stereo not given) + COc1cc2nc(C)nc(NC(C)c3cc(N)cc(C(F)(F)F)c3)c2cc1OC1CCOC1")
"satisfied"
>>> label("CC(C)n1nc(-c2ccc3oc(N)nc3c2)c2c(N)ncnc21 + CNCc1ccccc1-c1csc(C(C)Nc2nc(C)nc3cc(OC)c(OC)cc23)c1")
"satisfied"

Query block: Report whether reported viability, T/C is lower than 60% (strictly) for CC(C)NCC(C(=O)N1CCN(c2ncnc3c2C(C)CC3O)CC1)c1ccc(Cl)cc1 (stereo not given) + C=CC(=O)N1CCN(c2nc(=O)n(-c3c(C)ccnc3C(C)C)c3nc(-c4c(O)cccc4F)c(F)cc23)C(C)C1
Result block: satisfied

----------
Overview of recorded viability, T/C for various compounds
# Test system: KRAS patient-derived spheroids with HUVEC/MSC, viability
# procedure_summary: Anticancer human tumor 323965-272-R-J2-PDC cell line growth inhibition [KRAS2];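 also: spheroids exposed to agents for 7 days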;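 as to viability, T/C: 100% = DMSO vehicle control viability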
# setup_conditions: second compound 10 µM; first compound 0.316 µM; stronger effect = lower value
# Text: Multicellular complex tumor spheroid response to RAS pathway inhibitors in combination with a targeted agents in patient-derived cell lines with oncogenic KRAS variants from multiple cancer types A high-throughput screen of multi-cell type tumor spheroids was designed to identify active combinations of targeted small molecules and KRAS pathway inhibitors. […] Compounds. […] If the clinical Cmax for an agent had not been determined, the highest concentration tested was 10 microM. […]

Query block: Entry CC(C)NCC(C(=O)N1CCN(c2ncnc3c2C(C)CC3O)CC1)c1ccc(Cl)cc1 (stereo not given) + COc1cc2nc(C)nc(NC(C)c3cc(N)cc(C(F)(F)F)c3)c2cc1OC1CCOC1 has what viability, T/C?
Result block: 41.4%

Query block: Entry CC1(C)CCC(CN2CCN(c3ccc(C(=O)NS(=O)(=O)c4ccc(NCC5CCOCC5)c([N+](=O)[O-])c4)c(Oc4cnc5[nH]ccc5c4)c3)CC2)=C(c2ccc(Cl)cc2)C1 + CNCc1ccccc1-c1csc(C(C)Nc2nc(C)nc3cc(OC)c(OC)cc23)c1 has what viability, T/C?
Result block: 0.27%

Query block: Entry CCN1CCN(Cc2ccc(Nc3ncc(F)c(-c4cc(F)c5nc(C)n(C(C)C)c5c4)n3)nc2)CC1 + CC1OCC2(CCN(c3cnc(Sc4ccnc(N)c4Cl)c(N)n3)CC2)C1N has what viability, T/C?
Result block: 14.5%

Query block: Entry COc1cc(Nc2ncc3c(n2)-c2ccc(Cl)cc2C(c2c(F)cccc2OC)=NC3)ccc1C(=O)O + CNCc1ccccc1-c1csc(C(C)Nc2nc(C)nc3cc(OC)c(OC)cc23)c1 has what viability, T/C?
Result block: 0.16%

Query block: Entry COc1cc(Nc2ncc3c(n2)-c2ccc(Cl)cc2C(c2c(F)cccc2OC)=NC3)ccc1C(=O)O + C=CC(=O)N1CCN(c2nc(=O)n(-c3c(C)ccnc3C(C)C)c3nc(-c4c(O)cccc4F)c(F)cc23)C(C)C1 has what viability, T/C?
Result block: 20.2%

----------
# Tested on: KRAS patient-derived spheroids with HUVEC/MSC, viability
# procedure_summary: Anticancer human tumor 323965-272-R-J2-PDC cell line growth inhibition [KRAS2];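 also: spheroids exposed to agents for 7 days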;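 as to viability, T/C: 100% = DMSO vehicle control viability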
# setup_conditions: second compound 0.316 µM; first compound 0.0316 µM; stronger effect = lower value
Class assignment keyed on viability, T/C, ranges lowest = under 50%, middle = from 50% up to 70%, highest = 70% and over

>>> label("CN(C)C/C=C/C(=O)Nc1cc2c(Nc3ccc(F)c(Cl)c3)ncnc2cc1O[C@H]1CCOC1 + CC1OCC2(CCN(c3cnc(Sc4ccnc(N)c4Cl)c(N)n3)CC2)C1N")
"lowest"
>>> label("COC(=O)c1ccc2c(C(=Nc3ccc(N(C)C(=O)CN4CCN(C)CC4)cc3)c3ccccc3)c(O)[nH]c2c1 + CC1OCC2(CCN(c3cnc(Sc4ccnc(N)c4Cl)c(N)n3)CC2)C1N")
"highest"
>>> label("Cn1nccc1Nc1nccc(-c2cc3c(s2)C(C)(C)N(CCN2CCOCC2)C3=O)n1 + COc1cc2nc(C)nc(NC(C)c3cc(N)cc(C(F)(F)F)c3)c2cc1OC1CCOC1")
"highest"

Query block: Kindly identify the class of O=C(c1cc(Cc2n[nH]c(=O)c3ccccc23)ccc1F)N1CCN(C(=O)C2CC2)CC1 + COc1cc2nc(C)nc(NC(C)c3cc(N)cc(C(F)(F)F)c3)c2cc1OC1CCOC1 .
Result block: highest

Query block: Kindly identify the class of CC1OCC2(CCN(c3cnc(Sc4ccnc(N)c4Cl)c(N)n3)CC2)C1N (stereo unspecified) + CNCc1ccccc1-c1csc(C(C)Nc2nc(C)nc3cc(OC)c(OC)cc23)c1 .
Result block: highest
